Origin of measurements: patent US4778801A

- assay.system: benzodiazepine receptors
- assay.summary: specific binding to benzodiazepine receptors, [3H]-diazepam displacement
- condition.description: [3H]diazepam 2 nM, pH 7.4, 4° C., 20 minutes
attribute.measured: IC50 (nM)
Write the value in nM as a bare number.

Answered examples (2):
COc1ccc(N2C(=O)c3ccc([N+](=O)[O-])cc3C2CC(=O)N2CCC(=NO)CC2)cc1 (stereo not drawn): 7.94
O=C(CC1c2ccccc2C(=O)N1c1ccc2ccc(Cl)nc2n1)N1CCC2(CC1)SCCCS2 (stereo not drawn): 0.562

Let's switch to this compound now.
Field IC50 (entry O=C1CCN(C(=O)CC2c3ccccc3C(=O)N2c2ccc3ccc(Cl)nc3n2)CC1 (stereo not drawn) [drawing 16] ) reads 0.537
